System: NCI-H522
assay_info: NCI tumour cell line growth inhibition, 48 h
The source made the active and inactive calls. No stated cut-off is given here; in the data, active = GI50 up to about 1.1 µM and inactive = higher.
outcome_measure: GI50

- compound: "O=[N+]([O-])c1ccc(-c2ccc(-c3csc(Nc4ccccc4)n3)o2)cc1"
  assayed_target: "NCI-H522"
  GI50: "14.6 µM (inactive)"
- compound: "N#Cc1c(-c2ccccc2)[nH]c2ccc(Cl)cc2c1=O"
  assayed_target: "NCI-H522"
  GI50: "26.4 µM (inactive)"
- compound: "FC(F)(F)c1nc(-c2ccccc2)oc1Sc1oc(-c2ccccc2)nc1C(F)(F)F"
  assayed_target: "NCI-H522"
  GI50: "45.8 µM (inactive)"

Item under review: COC(=O)C(Cc1c[nH]c2ccccc12)NC1=Nc2ccncc2S(=O)(=O)N1c1ccccc1 (stereo not given) . Reported GI50?
28 µM (inactive)

Same lookup for O=C(CSc1nnc(Cc2ccccc2)o1)Nc1ccc([N+](=O)[O-])cc1 , please.
82.2 µM (inactive)
